Just for reference, patent US7951824B2 is where these values come from.

target: human mGlu 5a receptor (Homo sapiens, UniProt P41594); construct: expressed in transfected cells; host or cells: EBNA cells (transient transfection), membrane homogenates; experiment: [3H]MPEP competition binding on membranes of EBNA cells transfected with human mGlu 5a receptor; conditions: competition with [3H]MPEP (2 nM), 1 h at 4° C., EBNA cell membranes
Sequence (P41594 21-1180 isoform P41594-2 limits assumed): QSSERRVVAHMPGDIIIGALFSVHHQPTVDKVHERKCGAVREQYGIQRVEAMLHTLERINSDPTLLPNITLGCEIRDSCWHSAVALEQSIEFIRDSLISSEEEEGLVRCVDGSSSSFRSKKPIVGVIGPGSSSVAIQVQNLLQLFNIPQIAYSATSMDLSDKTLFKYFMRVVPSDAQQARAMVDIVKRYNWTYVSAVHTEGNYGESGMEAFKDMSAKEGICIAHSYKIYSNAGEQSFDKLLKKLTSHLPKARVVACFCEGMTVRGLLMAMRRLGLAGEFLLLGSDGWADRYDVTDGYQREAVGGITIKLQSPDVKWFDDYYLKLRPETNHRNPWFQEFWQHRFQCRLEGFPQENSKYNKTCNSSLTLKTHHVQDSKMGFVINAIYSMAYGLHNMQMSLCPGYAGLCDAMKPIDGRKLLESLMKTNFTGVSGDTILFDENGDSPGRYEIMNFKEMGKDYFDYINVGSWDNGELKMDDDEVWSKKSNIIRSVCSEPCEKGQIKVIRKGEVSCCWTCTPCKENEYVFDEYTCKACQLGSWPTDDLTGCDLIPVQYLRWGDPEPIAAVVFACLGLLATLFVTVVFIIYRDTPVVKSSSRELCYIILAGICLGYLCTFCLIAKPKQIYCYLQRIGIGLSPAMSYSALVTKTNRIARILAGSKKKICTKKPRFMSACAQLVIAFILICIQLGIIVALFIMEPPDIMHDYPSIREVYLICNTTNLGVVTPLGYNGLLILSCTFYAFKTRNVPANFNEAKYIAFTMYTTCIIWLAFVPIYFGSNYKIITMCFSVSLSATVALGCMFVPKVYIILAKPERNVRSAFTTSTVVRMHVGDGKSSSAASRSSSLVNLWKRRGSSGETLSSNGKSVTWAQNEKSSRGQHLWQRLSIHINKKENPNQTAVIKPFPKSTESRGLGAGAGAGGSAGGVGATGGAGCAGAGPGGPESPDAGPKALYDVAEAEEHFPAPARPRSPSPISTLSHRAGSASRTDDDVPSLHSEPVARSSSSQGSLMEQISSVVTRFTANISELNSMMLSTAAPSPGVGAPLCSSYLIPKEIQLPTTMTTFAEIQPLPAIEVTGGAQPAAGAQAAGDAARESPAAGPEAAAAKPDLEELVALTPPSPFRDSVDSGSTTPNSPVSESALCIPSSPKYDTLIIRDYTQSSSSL
property-name: Ki (nM)

Study these solved cases before continuing.
# compound, Ki, nM
records = [
    ("Cc1cc(-c2cc(F)cc(F)c2)cc(C(=O)Nc2ccnc(C#N)c2)n1 [Example 169]", 30),
    ("Cc1cc(-c2cc(F)cc(F)c2)cc(C(=O)Nc2ccnc(C)n2)n1 [Example 64]", 8),
]

a: Cc1cc(-c2cncc(F)c2)cc(C(=O)Nc2cccc(Cl)c2)n1 [Example 177]
b: Cc1cc(-c2cc(F)cc(F)c2)cc(C(=O)Nc2nc(CC#N)cs2)n1 [Example 163]
c: COc1cncc(-c2cc(C)nc(C(=O)Nc3csc(C)n3)c2)c1 [Example 56]
# rank by Ki, ascending (min first) Rank them, then answer with their labels in that order.
b, c, a

* * *

biological target: human mGlu 5a receptor (Homo sapiens, UniProt P41594); construct: expressed in transfected cells; host or cells: EBNA cells (transient transfection), membrane homogenates; test: [3H]MPEP competition binding on membranes of EBNA cells transfected with human mGlu 5a receptor; details: competition with [3H]MPEP (2 nM), 1 h at 4° C., EBNA cell membranes, head prints no unit
pKi: −log10 of the molar value.
property-name: pKi

# molecule, pKi
measured = [
    ("Cc1cc(-c2cncnc2)cc(C(=O)Nc2nc(C)cs2)n1 [Example 18]", 6.91),
    ("Cc1cc(-c2cccc(F)c2)cc(C(=O)Nc2nc(C)cs2)n1 [Example 1]", 8.52),
]

I: Cc1cc(-c2ccccc2Cl)cc(C(=O)Nc2nc(C)cs2)n1 [Example 14]
II: Cc1cc(-c2cc(F)ccc2F)cc(C(=O)Nc2nc(C)cs2)n1 [Example 5]
III: Cc1cc(-c2cc(Cl)cc(Cl)c2)cc(C(=O)Nc2nc(C)cs2)n1 [Example 17]
# rank by pKi, ascending (min first) Rank them, then answer with their labels in that order.
II, I, III

* * *

target: human mGlu 5a receptor (Homo sapiens); construct: expressed in transfected cells; host or cells: EBNA cells (transient transfection), membrane homogenates; assay: [3H]MPEP competition binding on membranes of EBNA cells transfected with human mGlu 5a receptor; conditions: competition with [3H]MPEP (2 nM), 1 h at 4° C., EBNA cell membranes
property-name: Ki (nM)

# structure-as-smiles, Ki, nM
records = [
    ("CCOC(=O)Cn1ccc(NC(=O)c2cc(-c3cc(F)cc(F)c3)cc(C)n2)n1", 576),
    ("Cc1cc(-c2cc(C)nc(C(=O)Nc3nc(C#N)cs3)c2)ccn1", 290),
    ("Cc1cc(-c2cc(F)cc(F)c2)nc(C(=O)Nc2nc(C)cs2)n1", 110),
    ("Cc1nc(C(=O)Nc2ccnc(Cl)c2)cc(-c2cc(F)cc(F)c2)n1", 113),
    ("Cc1cc(-c2cc(F)cc(F)c2)cc(C(=O)Nc2nccc(Cl)n2)n1", 79),
    ("Cc1cc(-c2ccc(F)cc2)cc(C(=O)Nc2ccnc(Cl)c2)n1", 620),
]

I: Cc1cc(-c2cccnc2)cc(C(=O)Nc2cccc(C#N)c2)n1
II: Cc1cc(-c2cc(F)cc(F)c2)cc(C(=O)Nc2ncc(F)s2)n1
From the recorded data, which exceeds the other in Ki: I or II ? # reply format: chosen label
I
(I: 411 nM, II: 81 nM)

P: Cc1cc(-c2ccc(F)cc2)cc(C(=O)Nc2cccc(Cl)c2)n1
Q: Cc1cc(-c2ccc(F)cc2)cc(C(=O)Nc2nc(C)cs2)n1
R: Cc1csc(NC(=O)c2cc(-c3cc(F)cc(F)c3)nc(C)n2)n1
# sort list by recorded Ki, greatest to least Rank them, then answer with their labels in that order.
P, Q, R
(P: 287 nM, Q: 55 nM, R: 14 nM)

A: Cc1cc(-c2cc(F)cc(F)c2)nc(C(=O)Nc2ccnc(Cl)c2)n1
B: Cc1cc(-c2cncc(F)c2)cc(C(=O)Nc2ccccc2)n1
From the recorded data, which exceeds the other in Ki: A or B ? # reply format: chosen label
B
(B: 364 nM, A: 221 nM)
